All values here come from patent US20230372301A1.

# test description: Pharmacokinetics of single oral doses of nirogacestat dihydrobromide
# Type: in vivo, human
# recorded conditions: human, in vivo, po, 100 mg, COHORT 2: 100 mg, Period 1, read-out: Tmax, Geometric Mean
Structures can show the parent of a compound that is named as a salt.
result type: Tmax (h)
Supply the numeric figure in h, leaving out any unit text.

-- ask Return value of Tmax for input CCC[C@H](N[C@H]1CCc2cc(F)cc(F)c2C1)C(=O)Nc1cn(C(C)(C)CNCC(C)(C)C)cn1 [nirogacestat dihydrobromide] , no commentary.
-- reply 1.19

###

# test description: Pharmacokinetics of single oral doses of nirogacestat dihydrobromide
# Format: in vivo, human
# recorded conditions: human, in vivo, po, 50 mg, COHORT 3: 50 mg, Period 1, read-out: Cmax, Median
Structures can show the parent of a compound that is named as a salt.
result type: Cmax (ng/mL)
Express it in ng/mL; write the number only.

-- ask # return recorded Cmax for input CCC[C@H](N[C@H]1CCc2cc(F)cc(F)c2C1)C(=O)Nc1cn(C(C)(C)CNCC(C)(C)C)cn1 [nirogacestat dihydrobromide]
-- reply 209

###

# test description: Pharmacokinetics of single oral doses of nirogacestat dihydrobromide
# Type: in vivo, human
# recorded conditions: human, in vivo, po, 100 mg, COHORT 2: 100 mg, Period 1, read-out: Vz/F, Median
Counter-ions that a name gives are not always drawn.
result type: Vd/F (L)
State just the number; it will be interpreted in L.

-- ask Identify measured Vd/F associated with CCC[C@H](N[C@H]1CCc2cc(F)cc(F)c2C1)C(=O)Nc1cn(C(C)(C)CNCC(C)(C)C)cn1 [nirogacestat dihydrobromide]
-- reply 2040

###

# test description: Pharmacokinetics of single oral doses of nirogacestat dihydrobromide
# Format: in vivo, human
# recorded conditions: human, in vivo, po, 50 mg, COHORT 3: 50 mg, Period 1, read-out: Cmax, Geometric Mean
Where a name gives a salt, the structure may show the parent alone.
result type: Cmax (ng/mL)
Give the number; ng/mL is assumed, so skip it.

-- ask Return Cmax (reported value) for this molecule: CCC[C@H](N[C@H]1CCc2cc(F)cc(F)c2C1)C(=O)Nc1cn(C(C)(C)CNCC(C)(C)C)cn1 [nirogacestat dihydrobromide]
-- reply 183

###

# test description: Pharmacokinetics of single oral doses of nirogacestat dihydrobromide
# Type: in vivo, human
# recorded conditions: human, in vivo, po, 150 mg, COHORT 1: 150 mg (1 × 150 mg), Period 2, read-out: Cmax, Median
Counter-ions that a name gives are not always drawn.
result type: Cmax (ng/mL)
Express your answer in ng/mL, writing the number without its unit.

-- ask Give the reported value of Cmax for this record: CCC[C@H](N[C@H]1CCc2cc(F)cc(F)c2C1)C(=O)Nc1cn(C(C)(C)CNCC(C)(C)C)cn1 [nirogacestat dihydrobromide]
-- reply 662

###

# test description: Pharmacokinetics of single oral doses of nirogacestat dihydrobromide
# Assay type: in vivo, human
# recorded conditions: human, in vivo, po, 150 mg, COHORT 1: 150 mg (1 × 150 mg), Period 2, read-out: Half-life, Median (converted)
Counter-ions that a name gives are not always drawn.
result type: half-life (h)
Could you give me the number in h? Just the number is fine.

-- ask Recall and state the measured half-life for CCC[C@H](N[C@H]1CCc2cc(F)cc(F)c2C1)C(=O)Nc1cn(C(C)(C)CNCC(C)(C)C)cn1 [nirogacestat dihydrobromide] .
-- reply 26.3
